- assay_text: Tested in vitro for Half- life period of the compound
- Format: ADME
Lab note: class by half-life, see band A (below 40 min), band B (40 min to below 50 min), band C (50 min or more)

These recorded examples may help you get a feel for the data.
compound="CN(CC(N)=O)C(=O)N(CCCl)N=O [SARCNU]" class_assignment="band C"
compound=NC(=O)CCNC(=O)N(CCCl)N=O class_assignment="band C"
compound="CC(C)C(NC(=O)N(CCCl)N=O)C(N)=O (stereo not drawn)" class_assignment="band B"
compound="NC(=O)C(CO)NC(=O)N(CCCl)N=O (stereo not drawn)" class_assignment="band A"
compound=NC(=O)CNC(=O)N(CCCl)N=O class_assignment="band B"

Which of the defined bands does the recorded half-life of CC(O)C(NC(=O)N(CCCl)N=O)C(N)=O (stereo not drawn) sit within?
band A

Kindly state the category for this compound: CC(C)CC(NC(=O)N(CCCl)N=O)C(N)=O (stereo not drawn)
band B

Dear colleague, I would appreciate it if you could identify the bin for NC(=O)CCCNC(=O)N(CCCl)N=O and reply at your convenience.
band C

Category of CSCCC(NC(=O)N(CCCl)N=O)C(N)=O (stereo not drawn) , please.
band A

Bin? NC(=O)CC(NC(=O)N(CCCl)N=O)C(N)=O (stereo not drawn)
band A

Which category fits this record: CC(NC(=O)N(CCCl)N=O)C(N)=O (stereo not drawn)
band A

Record NC(=O)C1CCCN1C(=O)N(CCCl)N=O (stereo not drawn) — which class?
band C
